Tested on: TK-10
Test: NCI tumour cell line growth inhibition, 48 h
Active and inactive are the calls of the source. Cut-off read from the data, not from the text of the source: active = GI50 up to about 1.1 µM and inactive = higher.
QUANTITY MEASURED: GI50

Cc1ccc2nc(CN3CCCCC3)cc(=O)n2c1: > 100 µM (inactive)
CC12CC(OC(=O)[C@]1(C)O)[C@@H]([C@]1(O)CC[C@H]3[C@@H]4C[C@H]5O[C@]56[C@@H](O)C=CC(=O)[C@]6(C)[C@H]4CC[C@@]31C)C2 (stereo partly specified): 7.36 µM (inactive)
CC(C)(Oc1ccc(C2C[C@H]2Cl)cc1)C(=O)O (stereo partly specified): > 100 µM (inactive)

Enter reported GI50 observed with TK-10 for COC(=O)C1(c2ccc(OC)cc2)NC(c2ccccc2)C2C(=O)N(c3ccc(OC)cc3)C(=O)C21 (stereo unspecified)
> 100 µM (inactive)

Record: `CCc1n[nH]c(=O)n1CCO`
> 100 µM (inactive)

Record: COc1cc(/C=C2\CC(C)C/C(=C\c3ccc(O)c(OC)c3)C2=O)ccc1O (stereo unspecified)
5.45 µM (inactive)

====

Test system: IGROV-1
Experiment: NCI tumour cell line growth inhibition, 48 h
Calls of active or inactive are those of the source. Cut-off read from the data, not from the text of the source: active = GI50 up to about 1.1 µM and inactive = higher.
Answer with one of the outcomes given here: TRUE for active, FALSE for inactive

Illustrative cases are given below, each with its answer.
CCc1nc2c(O)ccc(O)c2nc1C: FALSE
O=c1c2cccnc2ncn1CCN1CCCCC1: FALSE
CCC(=O)Nc1ccc(N2C(=O)C(Cl)C2c2ccc(SC)cc2)cc1 (centres undefined): FALSE
CC(C)C[C@H](NC(=O)[C@H](Cc1ccc(F)cc1)NC(=O)c1ccccn1)B(O)O: TRUE
CC1=NN(C(=O)CC(=O)Nc2ccc(C)cc2)C(=O)C1/N=N/c1ccc(C(=O)O)cc1 (centres undefined): FALSE
CC(C)(C)OC(=O)NCC(C#N)CNC(=O)OC(C)(C)C: FALSE
CCOC(=O)C(=O)NNc1nc2c(s1)C(=O)c1ccccc1C2=O: FALSE
C[C@H]1O[C@@H](c2c(O)ccc3ccccc23)C[C@@H](N(C)C)C1O (some centres undefined): FALSE

Query compound follows.
Dear colleague, could you share the recorded outcome for `Cc1ccc(S(=O)(=O)c2scc(-c3ccccc3)c2C)cc1` when you have a moment?
FALSE

====

Known GI50 of a selection of compounds
Test system: HT-29
Assay: NCI tumour cell line growth inhibition, 48 h
Activity calls are given as the source filed them. Cut-off read from the data, not from the text of the source: active = GI50 up to about 1.1 µM and inactive = higher.

COc1cccc(OC)c1C1ON=C(c2ccccc2)N1C12CC3CC(CC(C3)C1)C2 (stereo not given): > 100 µM (inactive)
Cc1ccc2c(c1)CC1(C2=O)[C@H](c2ccccc2)C2C(=O)c3ccc(C)cc3C2[C@H]1c1ccccc1 (stereo not given in full): > 100 µM (inactive)
O=C(Cc1nc2ccc(C(=O)c3ccccc3)cc2nc1O)C(=O)Nc1ccc(C(F)(F)F)cc1[N+](=O)[O-]: 50.9 µM (inactive)
O=S1(=O)C[C@@H](O)[C@H](O)CS1: > 100 µM (inactive)
CC(C)(Br)C(=O)C(Br)Br: 8.17 µM (inactive)

So what's the measured GI50 for this one? Cc1ccc(S(=O)(=O)C2=C([Si](C)(C)C)C3CC2[C@@H]2C4C=CC(CC4)[C@H]32)cc1 (stereo not given in full)
> 100 µM (inactive)

Record: `N#COc1ccc(Oc2ccc(OC#N)cc2)cc1`
70.6 µM (inactive)

Record: COC1(OC)CC2C(=O)N(Cc3ccccc3)C1C(S(=O)(=O)c1ccccc1)C2C(C)S(=O)(=O)c1ccccc1 (stereo not given)
> 100 µM (inactive)

Record: CC(=O)OC1C2CCC1C1C2N=NN1c1ccc([N+](=O)[O-])cc1 (stereo not given)
> 100 µM (inactive)

Record: `COc1cc(Oc2c(C)c(Cl)c(OC)c(Cl)c2OC)c2c(c1Cl)COC2=O`
9.23 µM (inactive)
